From: patent US20190352276A1

system: HepG2 cells (hepatocellular carcinoma); assay: General cytotoxicity on HepG2 cells (CC50; therapeutic index CC50 HepG2/IC50 Mino); type: cell-based; settings: Table 10; therapeutic index

compound	target_desc	CC50 (HepG2)/IC50 (Mino)
C=CC(=O)N1CCC[C@@H](n2nc(-c3ccc(C(=O)Nc4ccccn4)cc3)c3cncc(Cl)c32)C1 [BCD-BTK-201]	HepG2 cells (hepatocellular carcinoma)	>4.20
C=CC(=O)N1CCC[C@@H](n2nc(-c3ccc(C(=O)Nc4cc(C(F)(F)CC)ccn4)cc3)c3cncc(C#N)c32)C1 [BCD-BTK-219]	HepG2 cells (hepatocellular carcinoma)	>9.95
C=CC(=O)N1CCC[C@@H](n2nc(-c3ccc(Oc4cccnc4C(N)=O)cc3)c3cncc(Cl)c32)C1 [BCD-BTK-220]	HepG2 cells (hepatocellular carcinoma)	>9.51
C=CC(=O)N1CCC[C@@H](n2nc(-c3ccc(C(=O)Nc4cc(C(F)(F)CC)ccn4)cc3)c3cncc(F)c32)C1 [BCD-BTK-214]	HepG2 cells (hepatocellular carcinoma)	>77.94
C=CC(=O)N1CCC[C@@H](n2nc(-c3ccc(Oc4ccncc4)cc3)c3cncc(C(N)=O)c32)C1 [BCD-BTK-140]	HepG2 cells (hepatocellular carcinoma)	>5.93
